# test-description: Plasma and brain concentrations after single intraperitoneal administration, Examples 23 and 24
# Assay type: in vivo, male C57BL/6 mice
# details: male, C57BL/6, mouse, brain, IP 20 mg/kg, read-out: Brain Concentration (ng/g), Mean
# Protocol: This experiment was performed to determine plasma pharmacokinetics and estimate 2-AG levels in male C57BL/6 mice brain following a single intraperitoneal administration of Compound-74 (Dose: 5, 15, 50 and 150 mg/kg). […] Analysis: Brain samples were processed for 2-AG estimation. 2-AG levels were the detected values. Plasma concentrations were determined by fit for purpose LC-MS/MS method. […]
recorded-endpoint: concentration at 0.5 h (ng/g)
Supply the numeric figure in ng/g, leaving out any unit text.

Note to self: concentration at 0.5 h recorded for O=C(c1cc(O)ccc1F)N1CC2(CC(n3cc(C(F)(F)F)c(-c4ccccc4F)n3)C2)C1 (single isomer, unassigned) was 2630
